Quick note: these are pIC50 numbers for system: HDAC6 (Homo sapiens)
Sequence (Q9UBN7 whole entry): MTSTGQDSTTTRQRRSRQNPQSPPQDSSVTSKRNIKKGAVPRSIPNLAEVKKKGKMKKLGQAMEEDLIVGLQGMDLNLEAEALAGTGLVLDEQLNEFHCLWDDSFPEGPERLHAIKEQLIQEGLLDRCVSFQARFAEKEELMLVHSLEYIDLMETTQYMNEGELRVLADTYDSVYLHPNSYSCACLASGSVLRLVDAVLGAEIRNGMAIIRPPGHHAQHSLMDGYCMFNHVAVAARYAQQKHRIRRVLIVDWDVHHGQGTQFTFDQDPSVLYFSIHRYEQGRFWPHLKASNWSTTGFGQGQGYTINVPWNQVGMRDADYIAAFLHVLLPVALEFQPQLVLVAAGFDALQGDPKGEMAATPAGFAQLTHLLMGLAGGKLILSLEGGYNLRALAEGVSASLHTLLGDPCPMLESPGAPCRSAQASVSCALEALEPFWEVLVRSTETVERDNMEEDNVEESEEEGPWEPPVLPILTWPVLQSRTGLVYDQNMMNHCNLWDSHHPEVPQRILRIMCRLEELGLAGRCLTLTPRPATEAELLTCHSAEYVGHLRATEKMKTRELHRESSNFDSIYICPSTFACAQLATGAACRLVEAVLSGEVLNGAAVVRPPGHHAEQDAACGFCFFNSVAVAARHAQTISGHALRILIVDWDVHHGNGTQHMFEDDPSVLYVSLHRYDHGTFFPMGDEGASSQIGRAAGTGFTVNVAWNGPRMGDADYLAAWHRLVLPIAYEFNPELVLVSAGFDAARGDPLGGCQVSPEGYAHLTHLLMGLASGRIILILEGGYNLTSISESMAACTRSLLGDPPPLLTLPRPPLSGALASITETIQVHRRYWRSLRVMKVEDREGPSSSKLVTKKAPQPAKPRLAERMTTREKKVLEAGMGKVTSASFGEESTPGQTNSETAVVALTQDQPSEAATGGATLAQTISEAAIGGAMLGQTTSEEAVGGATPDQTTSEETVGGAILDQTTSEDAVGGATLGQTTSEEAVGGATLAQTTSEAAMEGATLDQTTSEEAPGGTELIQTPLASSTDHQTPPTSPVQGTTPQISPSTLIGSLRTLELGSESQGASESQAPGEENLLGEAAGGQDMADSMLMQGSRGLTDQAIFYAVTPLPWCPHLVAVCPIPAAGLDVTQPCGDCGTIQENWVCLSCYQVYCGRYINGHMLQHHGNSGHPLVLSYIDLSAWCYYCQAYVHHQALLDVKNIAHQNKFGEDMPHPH
Note on units: pIC50 is unitless, being -log10 of a concentration expressed in mol/L.

# annotated cases, reported pIC50 shown
compound | readout-number
CN(C)c1nc2c(Br)c(Br)c(Br)c(Br)c2n1CCCCCC(=O)NO [Compound 11b] | 6.18
CN(C)c1nc2c(Br)c(Br)c(Br)c(Br)c2n1Cc1ccc(C(=O)NO)cc1 | 4.69

Request: Enter reported pIC50 observed with HDAC6 (Homo sapiens) for O=C(NO)c1ccc(Cn2nnc3c(Br)c(Br)c(Br)c(Br)c32)cc1 [Compound 15b]
Result: 5.57

----------
# target-under-test: human recombinant CK2α (Homo sapiens, UniProt P68400)
# Construct: GST
# Sequence (P68400 whole entry): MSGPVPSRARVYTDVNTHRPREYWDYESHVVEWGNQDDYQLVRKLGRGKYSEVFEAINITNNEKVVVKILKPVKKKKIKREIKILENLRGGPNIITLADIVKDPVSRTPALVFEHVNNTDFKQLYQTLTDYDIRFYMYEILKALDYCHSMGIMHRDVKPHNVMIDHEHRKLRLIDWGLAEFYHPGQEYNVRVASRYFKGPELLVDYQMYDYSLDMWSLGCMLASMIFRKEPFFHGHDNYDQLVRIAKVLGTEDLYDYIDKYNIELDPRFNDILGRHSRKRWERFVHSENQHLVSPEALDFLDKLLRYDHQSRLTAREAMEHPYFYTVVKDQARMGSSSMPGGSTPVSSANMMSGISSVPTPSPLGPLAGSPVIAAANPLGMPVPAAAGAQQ
# test: CK2 inhibition, radiometric method with peptide substrate […]
# run-parameters: radiometric method, 20 µM ATP; read-out: Inhibitory activity IC50 on CK2
recorded-metric: pIC50
Note on units: pIC50 is unitless, being -log10 of a concentration expressed in mol/L.

# annotated cases, reported pIC50 shown
smiles-representation | target-under-test | recorded-metric | readout-number
CN(C)c1nc2c(Br)c(Br)c(Br)c(Br)c2n1Cc1ccc(C(=O)NO)cc1 | human recombinant CK2α (Homo sapiens, UniProt P68400) | pIC50 | 5.15
CN(C)c1nc2c(Br)c(Br)c(Br)c(Br)c2n1Cc1cn(CCCCC(=O)NO)nn1 | human recombinant CK2α (Homo sapiens, UniProt P68400) | pIC50 | 4.30
CN(C)c1nc2c(Br)c(Br)c(Br)c(Br)c2n1CCc1cn(CCCC(=O)NO)nn1 | human recombinant CK2α (Homo sapiens, UniProt P68400) | pIC50 | 4.27

Moving on to the next compound.
Request: Enter reported pIC50 observed with human recombinant CK2α (Homo sapiens, UniProt P68400) for CN(C)c1nc2c(Br)c(Br)c(Br)c(Br)c2n1Cc1cn(CCCC(=O)NO)nn1
Result: 4.07

----------
# System: breast adenocarcinoma cells of MCF-7 line
# test: Cytotoxicity, trypan blue exclusion assay, 24 h
# run-parameters: Homo sapiens, MCF7, read-out: LC50 values of compounds for cell line, MCF-7
recorded-metric: CC50 (µM)
Express the result in µM but write the number alone.

compound | target-under-test | CC50, µM
CN(C)c1nc2c(Br)c(Br)c(Br)c(Br)c2n1CCCCCC(=O)NO [Compound 11b] | breast adenocarcinoma cells of MCF-7 line | 9.97
CN(C)c1nc2c(Br)c(Br)c(Br)c(Br)c2n1CCCCCCC(=O)NO [Compound 11c] | breast adenocarcinoma cells of MCF-7 line | 9.02
CN(C)c1nc2c(Br)c(Br)c(Br)c(Br)c2n1CCCCCCCC(=O)NO [Compound 11d] | breast adenocarcinoma cells of MCF-7 line | 27.8

Moving on to the next compound.
Request: State the recorded CC50 for this entry: CN(C)c1nc2c(Br)c(Br)c(Br)c(Br)c2n1CCc1cn(CCC(=O)NO)nn1
Result: 15.7

----------
# target-under-test: human recombinant CK2α (Homo sapiens, UniProt P68400)
# Construct: GST
# test: CK2 inhibition, radiometric method with peptide substrate […]
# run-parameters: radiometric method, 20 µM ATP; read-out: Inhibitory activity IC50 on CK2
The following molecules are listed with their measured pIC50 values.
Note on units: pIC50 is unitless, being -log10 of a concentration expressed in mol/L.

# annotated cases, reported pIC50 shown
molecule | readout-number
CN(C)c1nc2c(Br)c(Br)c(Br)c(Br)c2n1CCCCC(=O)NO [Compound 11a] | 4.47
O=C(NO)c1ccc(Cn2nnc3c(Br)c(Br)c(Br)c(Br)c32)cc1 [Compound 15b] | 3.87
O=C(NO)c1ccc(Cn2nc3c(Br)c(Br)c(Br)c(Br)c3n2)cc1 [Compound 15a] | 4.82
CN(C)c1nc2c(Br)c(Br)c(Br)c(Br)c2n1CCc1cn(CCC(=O)NO)nn1 [Compound 7c] | 4.90

Moving on to the next molecule.
Request: State the recorded pIC50 for this entry: CN(C)c1nc2c(Br)c(Br)c(Br)c(Br)c2n1CCCCCCC(=O)NO [Compound 11c]
Result: 4.78

----------
The following compounds are listed with their measured pIC50 values.
# target-under-test: human recombinant HDAC1 (Homo sapiens)
# Sequence (Q13547 whole entry): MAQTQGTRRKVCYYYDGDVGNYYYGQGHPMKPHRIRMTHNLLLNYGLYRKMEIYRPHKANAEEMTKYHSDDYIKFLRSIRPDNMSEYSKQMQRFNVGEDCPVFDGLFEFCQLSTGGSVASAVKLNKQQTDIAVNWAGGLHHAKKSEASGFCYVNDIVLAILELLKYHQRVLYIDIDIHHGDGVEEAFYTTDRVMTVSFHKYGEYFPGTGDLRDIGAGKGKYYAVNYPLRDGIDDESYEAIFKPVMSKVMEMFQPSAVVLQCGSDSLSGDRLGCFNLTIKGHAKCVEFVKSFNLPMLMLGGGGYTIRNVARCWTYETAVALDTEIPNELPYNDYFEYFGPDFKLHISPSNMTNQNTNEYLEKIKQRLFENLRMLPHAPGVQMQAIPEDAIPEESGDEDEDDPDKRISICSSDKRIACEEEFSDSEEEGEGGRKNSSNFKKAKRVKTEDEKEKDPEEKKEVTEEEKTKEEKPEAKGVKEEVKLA
# test: HDAC1 inhibition, fluorometric method (Enzo Fluorometric Drug Discovery Assay Kit)
# run-parameters: read-out: Inhibitory activity IC50 on HDAC1
Note on units: pIC50 is unitless, being -log10 of a concentration expressed in mol/L.

# annotated cases, reported pIC50 shown
compound | pIC50
CN(C)c1nc2c(Br)c(Br)c(Br)c(Br)c2n1Cc1ccc(C(=O)NO)cc1 | 5.02
O=C(NO)c1ccc(Cn2nc3c(Br)c(Br)c(Br)c(Br)c3n2)cc1 [Compound 15a] | 5.07
CN(C)c1nc2c(Br)c(Br)c(Br)c(Br)c2n1CCc1cn(CCC(=O)NO)nn1 | 4.88

Moving on to the next compound.
Request: State the recorded pIC50 for this entry: CN(C)c1nc2c(Br)c(Br)c(Br)c(Br)c2n1CCCCC(=O)NO [Compound 11a]
Result: 4.21
